Origin of values: paper PMC4608580

# Tested on: Candida glabrata (CCM 8270)
# Type: cell-based
# TEST PARAMETERS: broth microdilution, Mueller-Hinton broth + 2% glucose, about 2.5 x 10^3 CFU/mL, 37°C, 24 h, absorbance 590 nm, at least triplicate
MIC C.glabrata values by entry
RECORDED METRIC: MIC C.glabrata (µg/mL)

>>> quantitative_readout("IKKILSKIKKLL-NH2 [DK5, Lys-rich derivative of amphibian AMP temporin-1CEb, …-NH2, reference compound]")
62.5
>>> quantitative_readout("YAGFLR-PEG-IKKILSKIKKLL-NH2 [DAL-PEG-DK5, conjugate of dalargin and DK5 joined by PEG-linker]")
125
>>> quantitative_readout("βAH-PEG-IKKILSKIKKLL-NH2 [CAR-PEG-DK5, conjugate of carnosine and DK5 joined by PEG-linker]")
62.5
>>> quantitative_readout("ΒAHβAHβAH-PEG-IKKILSKIKKLL-NH2 [CAR3-PEG-DK5, conjugate of CAR3 and DK5 joined by PEG-linker]")
125

====

Below, each entry is listed alongside its reported MIC P. aeruginosa.
# Tested on: Pseudomonas aeruginosa (PCM 499)
# Assay type: cell-based
# TEST PARAMETERS: broth microdilution, Mueller-Hinton broth, approximately 10^5 CFU/mL, 37°C, 24 h, absorbance 590 nm, at least triplicate
RECORDED METRIC: MIC P. aeruginosa (µg/mL)

>>> quantitative_readout("IKKILSKIKKLL-NH2 [DK5, Lys-rich derivative of amphibian AMP temporin-1CEb, …-NH2, reference compound]")
50
>>> quantitative_readout("ΒAHβAHβAH-PEG-IKKILSKIKKLL-NH2 [CAR3-PEG-DK5, conjugate of CAR3 and DK5 joined by PEG-linker]")
50
>>> quantitative_readout("YAGFLR-PEG-IKKILSKIKKLL-NH2 [DAL-PEG-DK5, conjugate of dalargin and DK5 joined by PEG-linker]")
25
>>> quantitative_readout("βAH-PEG-IKKILSKIKKLL-NH2 [CAR-PEG-DK5, conjugate of carnosine and DK5 joined by PEG-linker]")
50
>>> quantitative_readout("YAGFLR-PEG-IKKILSKIKKLLK-NH2 [DAL-PEG-LK6, conjugate of dalargin and LK6 joined by PEG-linker]")
25

====

# EXPERIMENTAL DETAILS: Circular dichroism, alpha-helical content
# Format: physicochemical
# TEST PARAMETERS: CD, mean residue ellipticity at 222 nm (Eq 1), peptide 0.4 mg/ml in 30 mM SDS, room temperature
Parameter: α-helicity. Scope: all listed entries.
RECORDED METRIC: α-helicity (%)

>>> quantitative_readout("YAGFLR-PEG-IKKILSKIKKLL-NH2 [DAL-PEG-DK5, conjugate of dalargin and DK5 joined by PEG-linker]")
35
>>> quantitative_readout("EGLEPG-PEG-IKKILSKIKKLLK-NH2 [CTEN2-PEG-LK6, conjugate of CTEN2 and LK6 joined by PEG-linker]")
20
>>> quantitative_readout("ΒAHβAHβAH-PEG-IKKILSKIKKLL-NH2 [CAR3-PEG-DK5, conjugate of CAR3 and DK5 joined by PEG-linker]")
27
>>> quantitative_readout("IKKILSKIKKLL-PEG-YAGFLR [DK5-PEG-DAL, conjugate of DK5 and dalargin joined by PEG-linker (8-amino-3,6-dioxaoctanoic acid)]")
20
>>> quantitative_readout("IKKILSKIKKLL-NH2 [DK5, Lys-rich derivative of amphibian AMP temporin-1CEb, …-NH2, reference compound]")
29
>>> quantitative_readout("βAH-PEG-IKKILSKIKKLL-NH2 [CAR-PEG-DK5, conjugate of carnosine and DK5 joined by PEG-linker]")
41
>>> quantitative_readout("YAGFLR-PEG-IKKILSKIKKLLK-NH2 [DAL-PEG-LK6, conjugate of dalargin and LK6 joined by PEG-linker]")
25

====

# Test system: Staphylococcus aureus (PCM 2054)
# Format: cell-based
# TEST PARAMETERS: broth microdilution, Mueller-Hinton broth, approximately 10^5 CFU/mL, 37°C, 24 h, absorbance 590 nm, at least triplicate
RECORDED METRIC: MIC S.aureus

>>> result("YAGFLR-PEG-IKKILSKIKKLL-NH2 [DAL-PEG-DK5, conjugate of dalargin and DK5 joined by PEG-linker]")
"50 µg/mL"
>>> result("EGLEPG-PEG-IKKILSKIKKLLK-NH2 [CTEN2-PEG-LK6, conjugate of CTEN2 and LK6 joined by PEG-linker]")
">125 µg/mL"
>>> result("IKKILSKIKKLL-PEG-YAGFLR [DK5-PEG-DAL, conjugate of DK5 and dalargin joined by PEG-linker (8-amino-3,6-dioxaoctanoic acid)]")
">125 µg/mL"
>>> result("IKKILSKIKKLL-NH2 [DK5, Lys-rich derivative of amphibian AMP temporin-1CEb, …-NH2, reference compound]")
">125 µg/mL"
>>> result("βAH-PEG-IKKILSKIKKLL-NH2 [CAR-PEG-DK5, conjugate of carnosine and DK5 joined by PEG-linker]")
"125 µg/mL"
>>> result("YAGFLR-PEG-IKKILSKIKKLLK-NH2 [DAL-PEG-LK6, conjugate of dalargin and LK6 joined by PEG-linker]")
"25 µg/mL"
>>> result("ΒAHβAHβAH-PEG-IKKILSKIKKLL-NH2 [CAR3-PEG-DK5, conjugate of CAR3 and DK5 joined by PEG-linker]")
">125 µg/mL"

====

# System: Escherichia coli (PCM 2057)
# Format: cell-based
# TEST PARAMETERS: broth microdilution, Mueller-Hinton broth, approximately 10^5 CFU/mL, 37°C, 24 h, absorbance 590 nm, at least triplicate
RECORDED METRIC: MIC E.coli (µg/mL)

>>> quantitative_readout("YAGFLR-PEG-IKKILSKIKKLL-NH2 [DAL-PEG-DK5, conjugate of dalargin and DK5 joined by PEG-linker]")
25
>>> quantitative_readout("YAGFLR-PEG-IKKILSKIKKLLK-NH2 [DAL-PEG-LK6, conjugate of dalargin and LK6 joined by PEG-linker]")
25
>>> quantitative_readout("IKKILSKIKKLL-PEG-YAGFLR [DK5-PEG-DAL, conjugate of DK5 and dalargin joined by PEG-linker (8-amino-3,6-dioxaoctanoic acid)]")
7.8
>>> quantitative_readout("βAH-PEG-IKKILSKIKKLL-NH2 [CAR-PEG-DK5, conjugate of carnosine and DK5 joined by PEG-linker]")
100

====

# System: Candida glabrata (CCM 8270)
# Format: cell-based
# TEST PARAMETERS: broth microdilution, Mueller-Hinton broth + 2% glucose, about 2.5 x 10^3 CFU/mL, 37°C, 24 h, absorbance 590 nm, at least triplicate
Measured MIC C.glabrata of individual entries
RECORDED METRIC: MIC C.glabrata

>>> result("EGLEPG-PEG-IKKILSKIKKLLK-NH2 [CTEN2-PEG-LK6, conjugate of CTEN2 and LK6 joined by PEG-linker]")
">125 µg/mL"
>>> result("IKKILSKIKKLL-PEG-YAGFLR [DK5-PEG-DAL, conjugate of DK5 and dalargin joined by PEG-linker (8-amino-3,6-dioxaoctanoic acid)]")
">125 µg/mL"
>>> result("YAGFLR-PEG-IKKILSKIKKLLK-NH2 [DAL-PEG-LK6, conjugate of dalargin and LK6 joined by PEG-linker]")
">125 µg/mL"

====

# maps each entry to its MIC E.coli
# System: Escherichia coli (PCM 2057)
# Format: cell-based
# TEST PARAMETERS: broth microdilution, Mueller-Hinton broth, approximately 10^5 CFU/mL, 37°C, 24 h, absorbance 590 nm, at least triplicate
RECORDED METRIC: MIC E.coli

>>> result("IKKILSKIKKLL-NH2 [DK5, Lys-rich derivative of amphibian AMP temporin-1CEb, …-NH2, reference compound]")
">125 µg/mL"
>>> result("ΒAHβAHβAH-PEG-IKKILSKIKKLL-NH2 [CAR3-PEG-DK5, conjugate of CAR3 and DK5 joined by PEG-linker]")
">125 µg/mL"
>>> result("EGLEPG-PEG-IKKILSKIKKLLK-NH2 [CTEN2-PEG-LK6, conjugate of CTEN2 and LK6 joined by PEG-linker]")
">125 µg/mL"
